biological target: Jak2 (UniProt O60674); experiment: phosphorylation enrichment, bacterial display (enrichment ratio); higher = better substrate or ligand; peptides without Tyr show the background;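 also: 11-residue human phosphosite peptides and single-mutation variants displayed on the E. coli surface, counted by deep sequencing, each peptide's frequency after selection divided by its frequency in the unselected input library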;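 also: frequency after pTyr selection over input frequency; kinase dosed for 20-30% of maximal phosphorylation in three min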
Sequence (O60674 whole entry, looked up): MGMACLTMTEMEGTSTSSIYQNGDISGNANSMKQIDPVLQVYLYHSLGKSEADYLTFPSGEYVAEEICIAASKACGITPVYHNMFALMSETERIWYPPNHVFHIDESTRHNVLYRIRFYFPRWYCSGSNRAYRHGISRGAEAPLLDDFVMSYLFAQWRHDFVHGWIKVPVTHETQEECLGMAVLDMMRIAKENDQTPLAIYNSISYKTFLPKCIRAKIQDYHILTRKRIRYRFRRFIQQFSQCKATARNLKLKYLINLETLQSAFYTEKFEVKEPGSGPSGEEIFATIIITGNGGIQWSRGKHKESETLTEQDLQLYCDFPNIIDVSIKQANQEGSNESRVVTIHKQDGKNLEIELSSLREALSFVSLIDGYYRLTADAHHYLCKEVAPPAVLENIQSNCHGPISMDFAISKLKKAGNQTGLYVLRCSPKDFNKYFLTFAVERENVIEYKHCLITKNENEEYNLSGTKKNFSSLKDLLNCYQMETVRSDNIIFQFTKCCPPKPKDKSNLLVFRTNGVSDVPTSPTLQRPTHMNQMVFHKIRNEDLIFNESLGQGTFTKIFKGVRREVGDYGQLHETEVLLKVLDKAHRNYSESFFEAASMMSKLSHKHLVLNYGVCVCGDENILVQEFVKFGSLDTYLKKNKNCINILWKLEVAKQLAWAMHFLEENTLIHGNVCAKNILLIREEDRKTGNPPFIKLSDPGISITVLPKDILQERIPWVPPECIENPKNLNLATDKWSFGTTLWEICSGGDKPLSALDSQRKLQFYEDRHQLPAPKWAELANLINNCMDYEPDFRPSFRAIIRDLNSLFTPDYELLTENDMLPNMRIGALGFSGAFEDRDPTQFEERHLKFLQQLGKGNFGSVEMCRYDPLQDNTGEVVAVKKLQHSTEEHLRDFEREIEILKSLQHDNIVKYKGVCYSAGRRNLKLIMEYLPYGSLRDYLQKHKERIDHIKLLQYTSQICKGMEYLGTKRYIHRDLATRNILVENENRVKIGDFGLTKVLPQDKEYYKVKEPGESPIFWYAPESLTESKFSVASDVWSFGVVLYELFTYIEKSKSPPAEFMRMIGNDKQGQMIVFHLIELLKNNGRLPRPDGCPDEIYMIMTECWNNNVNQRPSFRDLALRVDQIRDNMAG
Assign met to entries whose phosphorylation enrichment meets or exceeds 0.7; assign not met to the rest.

Tell me whether phosphorylation enrichment is at least 0.7 here: KQNSLYSFSDH [CCDC82_Y331] met

Determine whether measured phosphorylation enrichment meets or exceeds 0.7 for PPSLSYLSFEG [EXOSC3_Y143_A139P] met

Form field: phosphorylation enrichment at least 0.7? Entry: TGGLEYIVPLM [CLCN4_Y548] met

Please tell me: is the sequence KVNKIYHPDFI [LIG3_Y767_Y768H] at or over 0.7 in terms of phosphorylation enrichment? not met

Check if phosphorylation enrichment >= 0.7 (inclusive). Item: VSAPEYGPKLK [TBC1D14_Y46_L41V] not met

Has LDYNEYFRGLN [HPRT1_Y198_D201G] a recorded phosphorylation enrichment greater than or equal to 0.7? met

meta.source: the supplement of paper PMC10065799
